- test_description: Cmax in dog at 3 mg/kg, po
- Assay type: ADME, organism-based, Canis lupus familiaris
- Set-up: dose 3 mg/kg, route oral
- conditions_used: in vivo

>  <smiles_text>
Cc1c(CN[C@H]2CC[C@@H](F)C2)nn(CCC#N)c1-c1cc(F)cc(F)c1

>  <Cmax, nM>
2600

$$$$

---

- Tested on: Mus musculus
- test_description: Plasma concentration in mouse at 3 mg/kg, po
- Format: ADME, organism-based
- Set-up: dose 3 mg/kg, route oral
- conditions_used: in vivo

>  <smiles_text>
Cc1c(CN[C@H]2CC[C@@H](F)C2)nn(CCC#N)c1-c1cc(F)cc(F)c1

>  <experimental_system>
Mus musculus

>  <concentration [nM]>
16

$$$$

---

- test_description: Distribution coefficient, log D at pH 7.4 by shake-flask method
- Type: physicochemical
- conditions_used: octanol/water
Below is a list of entries, each paired with its recorded logD value.

>  <smiles_text>
CC(=O)Cn1nc(CN[C@H]2CC[C@@H](F)C2)c(C)c1-c1cc(F)cc(F)c1

>  <relation>
=

>  <logD>
1.4

$$$$
>  <smiles_text>
Cc1c(CN[C@H]2CC[C@@H](F)C2)nn(CCO)c1-c1cc(F)cc(F)c1

>  <relation>
=

>  <logD>
1.3

$$$$
>  <smiles_text>
Cc1c(CN[C@H]2CC[C@@H](F)C2)nn(CCS(C)(=O)=O)c1-c1cc(F)cc(F)c1

>  <relation>
<

>  <logD>
1

$$$$
>  <smiles_text>
Cc1c(CN[C@H]2CC[C@@H](F)C2)nn(CCC#N)c1-c1cc(F)cc(F)c1

>  <relation>
=

>  <logD>
1.5

$$$$
>  <smiles_text>
Cc1c(CN[C@H]2CC[C@@H](F)C2)nn(C)c1-c1cc(F)cc(F)c1

>  <relation>
=

>  <logD>
1.9

$$$$

---

- test_description: Metabolic stability in cryopreserved human hepatocytes after 30 mins
- Assay type: ADME, cell-based, Hepatocyte
- conditions_used: read-out: Stability
The label is TRUE for remaining at 0.5 h below 40% and FALSE for remaining at 0.5 h equal to or exceeding 40%.

>  <smiles_text>
Cc1c(CN[C@H]2CC[C@@H](F)C2)nn(C)c1-c1cc(F)cc(F)c1

>  <discrete_label>
FALSE

$$$$
>  <smiles_text>
Cc1ncc(-c2c(C)c(CN[C@H]3CC[C@@H](F)C3)nn2C)cc1F

>  <discrete_label>
TRUE

$$$$
>  <smiles_text>
Cc1ncc(-c2[nH]nc(CN[C@H]3CC[C@@H](F)C3)c2C)cc1F

>  <discrete_label>
TRUE

$$$$
>  <smiles_text>
Cc1c(CN[C@H]2CC[C@@H](F)C2)nn(CCC#N)c1-c1cc(F)cc(F)c1

>  <discrete_label>
FALSE

$$$$

---

- experimental_system: UniProt P41146
- test_description: Antagonist activity at ORL1 receptor by [35S]GTPgammaS binding assay
- Type: functional
Below is a list of entries, each paired with its recorded log10(IC50) value.
quantity: log10(IC50) (log10 of the value in nM)

>  <smiles_text>
Cn1nc(CN[C@H]2CC[C@@H](F)C2)c(Cl)c1-c1cc(F)cc(F)c1

>  <quantity>
log10(IC50)

>  <experimental_value>
0.40

$$$$
>  <smiles_text>
CCn1nc(CN[C@H]2CC[C@@H](F)C2)c(C)c1-c1cnc(C)c(F)c1

>  <quantity>
log10(IC50)

>  <experimental_value>
-0.21

$$$$
>  <smiles_text>
Cc1c(CN[C@H]2CC[C@@H](F)C2)nn(C)c1-c1cc(F)cc(F)c1

>  <quantity>
log10(IC50)

>  <experimental_value>
0.40

$$$$
>  <smiles_text>
COCc1c(CN[C@H]2CC[C@@H](F)C2)nn(C)c1-c1cc(F)cc(F)c1

>  <quantity>
log10(IC50)

>  <experimental_value>
0.00

$$$$
>  <smiles_text>
Cc1ncc(-c2c(C)c(CN[C@H]3CC[C@@H](F)C3)nn2C)cc1F

>  <quantity>
log10(IC50)

>  <experimental_value>
0.34

$$$$
>  <smiles_text>
Cc1c(CN[C@H]2CC[C@@H](F)C2)nn(C)c1-c1ccc(F)c(F)c1

>  <quantity>
log10(IC50)

>  <experimental_value>
0.81

$$$$
>  <smiles_text>
Cc1c(CN[C@H]2CC[C@@H](F)C2)nn(C)c1-c1cc(F)c(F)c(F)c1

>  <quantity>
log10(IC50)

>  <experimental_value>
1.11

$$$$
>  <smiles_text>
Cc1ncc(-c2[nH]nc(CN[C@H]3CC[C@@H](F)C3)c2C)cc1F

>  <quantity>
log10(IC50)

>  <experimental_value>
0.89

$$$$

---

- test_description: Plasma clearance in rat at 1 mg/kg, iv
- Type: ADME, organism-based
- Parameters: dose 1 mg/kg, route intravenous
quantity: clearance (mL/min/kg)

>  <smiles_text>
Cc1c(CN[C@H]2CC[C@@H](F)C2)nn(CCC#N)c1-c1cc(F)cc(F)c1

>  <experimental_value>
83

$$$$

---

- Tested on: Mus musculus
- test_description: Plasma concentration in mouse at 10 mg/kg, po
- Assay type: ADME, organism-based
- Parameters: dose 10 mg/kg, route oral
- conditions_used: in vivo

>  <smiles_text>
Cc1c(CN[C@H]2CC[C@@H](F)C2)nn(CCC#N)c1-c1cc(F)cc(F)c1

>  <experimental_system>
Mus musculus

>  <concentration, nM>
315

$$$$

---

- test_description: Oral bioavailability in dog at 3 mg/kg
- Type: ADME, organism-based, Canis lupus familiaris
- conditions_used: in vivo

>  <smiles_text>
Cc1c(CN[C@H]2CC[C@@H](F)C2)nn(CCC#N)c1-c1cc(F)cc(F)c1

>  <bioavailability / %>
62

$$$$

---

- test_description: AUC (0 to infinity) in dog at 3 mg/kg, po
- Assay type: ADME, organism-based, Canis lupus familiaris
- Design: dose 3 mg/kg, route oral, time infinity
- conditions_used: plasma

>  <smiles_text>
Cc1c(CN[C@H]2CC[C@@H](F)C2)nn(CCC#N)c1-c1cc(F)cc(F)c1

>  <AUC(0-inf), µM·h>
1.3

$$$$

---

- experimental_system: UniProtKB P41145
- Sequence (P41145 whole entry): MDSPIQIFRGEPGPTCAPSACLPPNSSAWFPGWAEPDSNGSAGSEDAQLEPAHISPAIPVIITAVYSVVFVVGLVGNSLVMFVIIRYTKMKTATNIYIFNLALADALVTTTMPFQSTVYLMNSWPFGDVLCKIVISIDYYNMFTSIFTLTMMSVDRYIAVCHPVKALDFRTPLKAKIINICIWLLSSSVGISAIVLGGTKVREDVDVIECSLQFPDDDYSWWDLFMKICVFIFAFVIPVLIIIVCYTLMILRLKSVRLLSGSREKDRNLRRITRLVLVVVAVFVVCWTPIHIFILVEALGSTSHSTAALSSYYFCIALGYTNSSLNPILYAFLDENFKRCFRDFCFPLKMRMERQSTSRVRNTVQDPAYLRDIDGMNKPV
- test_description: Displacement of [3H]U69593 from human cloned kappa opioid receptor expressed in CHO cells
quantity: IC50 (µM)

>  <smiles_text>
Cc1c(CN[C@H]2CC[C@@H](F)C2)nn(CCC#N)c1-c1cc(F)cc(F)c1

>  <quantity>
IC50

>  <experimental_value>
9.8

$$$$

---

Below is a list of entries, each paired with its recorded log10(IC50) value.
- experimental_system: Nociceptin receptor (Homo sapiens)
- Sequence (P41146 whole entry): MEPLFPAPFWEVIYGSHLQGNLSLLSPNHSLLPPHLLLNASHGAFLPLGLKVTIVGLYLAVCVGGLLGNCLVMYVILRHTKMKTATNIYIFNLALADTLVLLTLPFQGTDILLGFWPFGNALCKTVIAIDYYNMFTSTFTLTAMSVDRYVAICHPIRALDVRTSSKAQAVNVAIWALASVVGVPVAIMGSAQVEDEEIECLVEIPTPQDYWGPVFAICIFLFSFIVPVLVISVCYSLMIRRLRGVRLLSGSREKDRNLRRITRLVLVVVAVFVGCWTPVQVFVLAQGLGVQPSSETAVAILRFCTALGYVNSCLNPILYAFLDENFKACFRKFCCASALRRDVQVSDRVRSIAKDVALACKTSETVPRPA
- test_description: Displacement of [125I]Tyr14-NC/OFQ from ORL1 receptor
quantity: log10(IC50) (log10 of the value in nM)

>  <smiles_text>
CC(=O)Cn1nc(CN[C@H]2CC[C@@H](F)C2)c(C)c1-c1cc(F)cc(F)c1

>  <experimental_system>
Nociceptin receptor (Homo sapiens)

>  <log10(IC50)>
1.08

$$$$
>  <smiles_text>
Cn1nc(CN[C@H]2CC[C@@H](F)C2)c(Cl)c1-c1cc(F)cc(F)c1

>  <experimental_system>
Nociceptin receptor (Homo sapiens)

>  <log10(IC50)>
0.97

$$$$
>  <smiles_text>
Cc1c(CN[C@H]2CC[C@@H](F)C2)nn(CCS(C)(=O)=O)c1-c1cc(F)cc(F)c1

>  <experimental_system>
Nociceptin receptor (Homo sapiens)

>  <log10(IC50)>
1.52

$$$$
>  <smiles_text>
Cc1ncc(-c2c(C)c(CN[C@H]3CC[C@@H](F)C3)nn2C)cc1F

>  <experimental_system>
Nociceptin receptor (Homo sapiens)

>  <log10(IC50)>
0.63

$$$$
>  <smiles_text>
COCc1c(CN[C@H]2CC[C@@H](F)C2)nn(C)c1-c1cc(F)cc(F)c1

>  <experimental_system>
Nociceptin receptor (Homo sapiens)

>  <log10(IC50)>
0.15

$$$$
>  <smiles_text>
Cc1c(CN[C@H]2CC[C@@H](F)C2)nn(C)c1-c1cc(F)c(F)c(F)c1

>  <experimental_system>
Nociceptin receptor (Homo sapiens)

>  <log10(IC50)>
1.18

$$$$
>  <smiles_text>
Cc1c(CN[C@H]2CC[C@@H](F)C2)nn(C)c1-c1cc(F)cc(C(F)(F)F)c1

>  <experimental_system>
Nociceptin receptor (Homo sapiens)

>  <log10(IC50)>
2.32

$$$$
>  <smiles_text>
Cc1c(CN[C@H]2CC[C@@H](F)C2)nn(C)c1-c1cc(F)cc(F)c1

>  <experimental_system>
Nociceptin receptor (Homo sapiens)

>  <log10(IC50)>
0.49

$$$$
>  <smiles_text>
Cc1ncc(-c2[nH]nc(CN[C@H]3CC[C@@H](F)C3)c2C)cc1F

>  <experimental_system>
Nociceptin receptor (Homo sapiens)

>  <log10(IC50)>
1.00

$$$$
>  <smiles_text>
Cc1c(CN[C@H]2CC[C@@H](F)C2)nn(C)c1-c1ccc(F)c(F)c1

>  <experimental_system>
Nociceptin receptor (Homo sapiens)

>  <log10(IC50)>
0.81

$$$$
